# Tested on: velvetleaf (Abutilon theophrasti)
# experimental protocol: Test B preemergence
# Type: in vivo
# measurement context: Preemergence, Rate 500 g/ha; scale 0 to 100, 0 no effect, 100 complete control
measured quantity: Plant response rating, Velvetleaf
One number for each entry.

Use the examples below as a reference point.
The molecule CCC(C)c1ccn(C2CCN(c3cccc(OC(C)C)c3)C2=O)n1 (stereo not drawn) [Compound 83] showed Plant response rating, Velvetleaf equal to 0

Lookup result for CCCC(C)c1ccn(C2CCN(c3cccc(OC)c3)C2=O)n1 (stereo not drawn) [Compound 99] ; measured Plant response rating, Velvetleaf: 0

Sample CC(C)(C)c1ccn(C2CCN(c3cccc(C(F)(F)F)c3)C2=O)n1 (stereo not drawn) [Example 3] ; Plant response rating, Velvetleaf observed: 0

Plant response rating, Velvetleaf reading for COc1cc(OC)cc(N2CCC(n3ccc(C(C)(C)C)n3)C2=O)c1 (stereo not drawn) [Compound 71] : 30

# batch: return Plant response rating, Velvetleaf for each of the 6 molecules below
1. CC(C)c1ccn(C2SCN(c3cccc(OC(F)F)c3)C2=O)n1 (stereo not drawn) [Compound 44]
2. CC(C)(C)c1ccn(C2CCN(c3ccc(F)c(C(F)(F)F)c3)C2=O)n1 (stereo not drawn) [Compound 146]
3. CC(C)(C)c1ccn(C2CCN(c3ccc(Cl)c(Br)c3)C2=O)n1 (stereo not drawn) [Compound 56]
4. CCCC(C)c1ccn(C2CCN(c3ccc(Cl)c(OC)c3)C2=O)n1 (stereo not drawn) [Compound 121]
5. O=C1C(n2cc(Cl)c(C3CC3)n2)CCN1c1cccc(C(F)(F)F)c1 (stereo not drawn) [Compound 12]
6. CCCC(C)c1ccn(C2CCN(c3cccc(OCC)c3)C2=O)n1 (stereo not drawn) [Compound 129]

**A:**
[0, 20, 0, 20, 0, 0]

Fill in Plant response rating, Velvetleaf for each of the 5 molecules listed.
1. COc1cc(N2CCC(n3ccc(C(C)C)n3)C2=O)ccc1C (stereo not drawn) [Compound 85]
2. O=C1C(n2cccn2)CCN1c1cccc(C(F)(F)F)c1 (stereo not drawn) [Compound 15]
3. Cc1cc(C)nc(N2CCC(n3ccc(C(C)(C)C)n3)C2=O)c1 (stereo not drawn) [Compound 138]
4. COc1cc(N2CCC(n3ccc(C(C)(C)C)n3)C2=O)ccc1Br (stereo not drawn) [Compound 141]
5. CC(C)(C)c1ccn(C2CCN(c3cccc(OC(F)(F)C(F)F)c3)C2=O)n1 (stereo not drawn) [Compound 48]

**A:**
1. 100
2. 70
3. 0
4. 100
5. 0

Please report Plant response rating, Velvetleaf for every entry that follows.
1. CC(C)(C)c1ccn(C2CCN(c3cccc(S(C)(=O)=O)c3)C2=O)n1 (stereo not drawn) [Compound 102]
2. CCC(CC)c1ccn(C2CCN(c3cccc(OC(C)C)c3)C2=O)n1 (stereo not drawn) [Compound 84]
3. Cc1ccc(N2CCC(n3ccc(C(C)(C)C)n3)C2=O)cc1C(F)(F)F (stereo not drawn) [Compound 47]
4. O=C1C(n2ccc(C3CCCCC3)n2)OCN1c1cccc(C(F)(F)F)c1 (stereo not drawn) [Compound 51]
5. CCC(C)c1ccn(C2CCN(c3cccc(OC)c3)C2=O)n1 (stereo not drawn) [Compound 95]
6. O=C1C(n2ccc(C3CCCCC3)n2)SCN1c1cccc(OC(F)(F)F)c1 (stereo not drawn) [Compound 50]
7. CC(C)(C)c1ccn(C2CCN(c3cccc(C(F)(F)F)c3)C2=S)n1 (stereo not drawn) [Compound 22]

**A:**
1. 0
2. 0
3. 0
4. 0
5. 50
6. 100
7. 0

Batch of 2 molecules: report Plant response rating, Velvetleaf for each.
1. CC(C)(C)c1nn(C2CCN(c3cccc(C(F)(F)F)c3)C2=O)cc1Cl (stereo not drawn) [Compound 14]
2. O=C1C(n2ccc(C3CCCCC3)n2)SCN1c1cccc(C(F)(F)F)c1 (stereo not drawn) [Compound 52]

**A:**
1: 0; 2: 0

---

# System: barnyardgrass (Echinochloa crus-galli)
# experimental protocol: Test B postemergence
# Assay type: in vivo
# measurement context: Rate 500 g/ha, scale 0 to 100, 0 is no effect, 100 is complete control, 13 to 15 days
measured quantity: Plant response rating, Barnyardgrass
Answers are plain numbers.

Some molecules with recorded Plant response rating, Barnyardgrass:
// returns Plant response rating, Barnyardgrass for CC(C)Oc1cccc(N2CCC(n3ccc(C(C)(C)C)n3)C2=O)c1 (stereo not drawn) with barnyardgrass (Echinochloa crus-galli); value = 0

Given the molecule CC(C)(C)c1ccn(C2CCN(c3cccc(OC(F)F)c3)C2=O)n1 (stereo not drawn) and test system barnyardgrass (Echinochloa crus-galli), the measured Plant response rating, Barnyardgrass is 90

Here is the next item to consider.
Log: barnyardgrass (Echinochloa crus-galli), molecule CCC(C)c1ccn(C2OCN(c3cccc(OC(F)(F)F)c3)C2=O)n1 (stereo not drawn) , Plant response rating, Barnyardgrass = 100

---

For each of the compounds below, state its Plant response rating, Morningglory.
# Test system: morning glory (Ipomoea hederacea)
# experimental protocol: Test B preemergence
# Assay type: in vivo
# measurement context: preemergence; Rate 125 g/ha; scale 0 to 100, 0 no effect, 100 complete control
Give bare numbers.

Here's what some known entries look like.
Per the records, this compound ( CC1CCc2cn(C3CCN(c4cccc(C(F)(F)F)c4)C3=O)nc21 (stereo not drawn) ) has Plant response rating, Morningglory equal to 0

// CC(C)c1ccn(C2SCN(c3cccc(C(F)(F)F)c3)C2=O)n1 (stereo not drawn) : Plant response rating, Morningglory value = 0

More entries:
Entry CCC(C)c1nn(C2CCN(c3cccc(C(F)(F)F)c3)C2=O)cc1Cl (stereo not drawn) — recorded Plant response rating, Morningglory = 0

---

# System: johnsongrass (Sorghum halepense)
# experimental protocol: Test C preemergence
# Type: in vivo
# measurement context: preemergence, Rate 500 g/ha, visual evaluation after 12 to 14 days
# Description: […]
measured quantity: Plant response rating (0 to 100), Johnsongrass
Numbers only.

Some solved cases for reference:
Entry CC(C)(C)c1ccn(C2CCN(c3ccc(F)c(Br)c3)C2=O)n1 (stereo not drawn) : Plant response rating (0 to 100), Johnsongrass on johnsongrass (Sorghum halepense) = 30

The recorded Plant response rating (0 to 100), Johnsongrass with johnsongrass (Sorghum halepense) for CCCC(C)c1ccn(C2CCN(c3cccc(C(F)(F)F)c3)C2=O)n1 (stereo not drawn) was 100

Continuing:
// Plant response rating (0 to 100), Johnsongrass (johnsongrass (Sorghum halepense)) for CSc1cccc(N2CCC(n3ccc(C(C)(C)C)n3)C2=O)c1 (stereo not drawn) = 50

---

Please provide measured Plant response rating, Foxtail, Giant for the entries that follow.
# System: giant foxtail (Setaria faberii)
# experimental protocol: Test B preemergence
# Assay type: in vivo
# measurement context: Preemergence, Rate 500 g/ha; scale 0 to 100, 0 no effect, 100 complete control
Give bare numbers.

Lab note: measured Plant response rating, Foxtail, Giant of CC(C)(C)c1ccn(C2CCN(c3cccc(OC(F)(F)C(F)F)c3)C2=O)n1 (centres unmarked) was 0

Record CC(C)(C)c1ccn(C2CCN(c3ccc(F)c(C(F)(F)F)c3)C2=O)n1 (centres unmarked) , field Plant response rating, Foxtail, Giant: 100

Summary for this compound, CCC(C)c1nn(C2CCN(c3cccc(C(F)(F)F)c3)C2=O)cc1Cl (centres unmarked) : Plant response rating, Foxtail, Giant is 0

Briefly, Plant response rating, Foxtail, Giant measured for CCC(CC)c1ccn(C2SCN(c3cccc(C(F)(F)F)c3)C2=O)n1 (centres unmarked) [Compound 25] : 100

Item: CC(C)(C)c1ccn(C2CCN(c3cccc(C(F)(F)F)c3)C2=O)n1 (centres unmarked) | Plant response rating, Foxtail, Giant: 80

Summary for this compound, O=C1C(n2ccc(C3CC3)n2)OCN1c1cccc(C(F)(F)F)c1 (centres unmarked) : Plant response rating, Foxtail, Giant is 100

Could you report Plant response rating, Foxtail, Giant for every entry in the following list?
1. CC(C)(C)c1ccn(C2CCN(c3cccc(OC(F)F)c3)C2=O)n1 (centres unmarked)
2. Cc1ccc(N2CCC(n3ccc(C(C)(C)C)n3)C2=O)cc1OC(C)C (centres unmarked)

**A:**
100
50

For every listed record, write down its Plant response rating, Foxtail, Giant.
1. O=C1C(n2ccc(C3CC3)n2)SCN1c1cccc(C(F)(F)F)c1 (centres unmarked)
2. CC(C)(C)c1ccn(C2SCN(c3cccc(OC(F)F)c3)C2=O)n1 (centres unmarked)

**A:**
[100, 100]

---

# Tested on: rice (Oryza saliva)
# experimental protocol: Test C flooded paddy test
# Assay type: in vivo
# measurement context: Flooded Paddy; Rate 250 g/ha; scale 0 to 100, 0 no effect, 100 complete control
measured quantity: Rice plant response rating
Answers are plain numbers.

Answered cases to consult:
For this molecule ( CCC(CC)c1ccn(C2SCN(c3cccc(C(F)(F)F)c3)C2=O)n1 (stereo not drawn) [Compound 21] ), measured Rice plant response rating is 70

response.value for O=C1C(n2ccc(C3CC3)n2)SCN1c1cccc(C(F)(F)F)c1 (stereo not drawn) [Compound 26] (field: Rice plant response rating) = 80

# Rice plant response rating (molecule: CC(C)(C)c1ccn(C2CCN(c3cccc(Cl)c3)C2=O)n1 (stereo not drawn) [Compound 43] ) is 0

Below are 3 molecules. Give each one its Rice plant response rating.
1. CCC(CC)c1ccn(C2CCN(c3cccc(OC(C)C)c3)C2=O)n1 (stereo not drawn) [Compound 84]
2. O=C1C(n2ccc(C3CCC3)n2)SCN1c1cccc(C(F)(F)F)c1 (stereo not drawn) [Compound 37]
3. CCCC(C)c1ccn(C2CCN(c3cccc(OC)c3)C2=O)n1 (stereo not drawn) [Compound 99]

**A:**
1: 30; 2: 30; 3: 50
